ASSAYED TARGET: T1, human EpCAM-mFc (human)
T1 chain: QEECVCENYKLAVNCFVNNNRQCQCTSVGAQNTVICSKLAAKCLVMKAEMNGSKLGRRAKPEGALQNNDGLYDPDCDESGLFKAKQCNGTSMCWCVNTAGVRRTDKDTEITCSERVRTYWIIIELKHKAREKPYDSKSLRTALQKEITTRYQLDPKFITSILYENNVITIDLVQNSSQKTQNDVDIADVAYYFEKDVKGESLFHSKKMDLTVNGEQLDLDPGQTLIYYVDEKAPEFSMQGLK
EXPERIMENTAL PROTOCOL: ELISA
READOUT LABEL: pKd
One number for each entry, as −log10 of the molar value.

Worked cases, answers included:
EP107-2-3014 (1361-H) (antibody) chain 1: QVQLVQSGAEVKKPGASVKVSCKASGYTFTNYHIHWVRQAPGQRLEYIGWIYPGNVYIQYNEKFKGRATLTADKSASTAYMELSSLRSEDTAVYYCARDGPWFAYWGQGTLVTVSS chain 2: QGQSGQGSHPCSYMHPYCFYNSGGGSSGGAVGLLAPPGGLSGRSDNIGGSDIVLTQTPLSLSVTPGQPASISCRSSRSLLHSDGFTYLYWFLQKPGQSPQLLIYQTSNLASGVPDRFSSSGSGTDFTLKISRVEAEDVGVYYCAQNLELPNTFGQGTKLEIK
7.36
EP07-3014 (1361-H) (antibody) chain 1: QVQLVQSGAEVKKPGASVKVSCKASGYTFTNYHIHWVRQAPGQRLEYIGWIYPGNVYIQYNEKFKGRATLTADKSASTAYMELSSLRSEDTAVYYCARDGPWFAYWGQGTLVTVSS chain 2: QGQSGQGHSGCPRLFDRCSAPAGGGSSGGAVGLLAPPGGLSGRSDNIGGSDIVLTQTPLSLSVTPGQPASISCRSSRSLLHSDGFTYLYWFLQKPGQSPQLLIYQTSNLASGVPDRFSSSGSGTDFTLKISRVEAEDVGVYYCAQNLELPNTFGQGTKLEIK
8.82
EP11-3014 (1361-H) (antibody) chain 1: QVQLVQSGAEVKKPGASVKVSCKASGYTFTNYHIHWVRQAPGQRLEYIGWIYPGNVYIQYNEKFKGRATLTADKSASTAYMELSSLRSEDTAVYYCARDGPWFAYWGQGTLVTVSS chain 2: QGQSGQGFICPTLYDRPHCMHTGGGSSGGAVGLLAPPGGLSGRSDNIGGSDIVLTQTPLSLSVTPGQPASISCRSSRSLLHSDGFTYLYWFLQKPGQSPQLLIYQTSNLASGVPDRFSSSGSGTDFTLKISRVEAEDVGVYYCAQNLELPNTFGQGTKLEIK
7.52
EP102-3014 (1565-Y) (antibody) chain 1: QVQLVQSGAEVKKPGASVKVSCKASGYTFTNYYIHWVRQAPGQRLEYIGWIYPGNVYIQYNEKFKGRATLTADKSASTAYMELSSLRSEDTAVYYCARDGYWFAYWGQGTLVTVSS chain 2: QGQSGQGSPACSDRYYQTCVLNGGGSSGGAVGLLAPPGGLSGRSDNIGGSDIVLTQTPLSLSVTPGQPASISCRSSRSLLHSDGFTYLYWFLQKPGQSPQLLIYQTSNLASGVPDRFSSSGSGTDFTLKISRVEAEDVGVYYCAQNLELPNTFGQGTKLEIK
7.14
EP05-3014 (1361-H) (antibody) chain 1: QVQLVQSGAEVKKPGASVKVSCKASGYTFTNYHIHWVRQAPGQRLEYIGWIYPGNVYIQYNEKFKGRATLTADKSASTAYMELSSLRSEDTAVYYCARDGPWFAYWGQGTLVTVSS chain 2: QGQSGQGWWPPCQGGAWCEQRIGGGSSGGAVGLLAPPGGLSGRSDNIGGSDIVLTQTPLSLSVTPGQPASISCRSSRSLLHSDGFTYLYWFLQKPGQSPQLLIYQTSNLASGVPDRFSSSGSGTDFTLKISRVEAEDVGVYYCAQNLELPNTFGQGTKLEIK
9.34
EP101-3014 (1565-Y) (antibody) chain 1: QVQLVQSGAEVKKPGASVKVSCKASGYTFTNYYIHWVRQAPGQRLEYIGWIYPGNVYIQYNEKFKGRATLTADKSASTAYMELSSLRSEDTAVYYCARDGYWFAYWGQGTLVTVSS chain 2: QGQSGQGSWCHSATDTILPCSNGGGSSGGAVGLLAPPGGLSGRSDNIGGSDIVLTQTPLSLSVTPGQPASISCRSSRSLLHSDGFTYLYWFLQKPGQSPQLLIYQTSNLASGVPDRFSSSGSGTDFTLKISRVEAEDVGVYYCAQNLELPNTFGQGTKLEIK
6.41

# batch size: 3; output pKd per entry
1. EP108-3014 (1361-H) (antibody) chain 1: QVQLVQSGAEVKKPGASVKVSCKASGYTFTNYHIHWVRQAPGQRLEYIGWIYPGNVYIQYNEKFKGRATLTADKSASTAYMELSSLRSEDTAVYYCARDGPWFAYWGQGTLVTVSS chain 2: QGQSGQGLTRCTIAHPYCYYNYGGGSSGGAVGLLAPPGGLSGRSDNIGGSDIVLTQTPLSLSVTPGQPASISCRSSRSLLHSDGFTYLYWFLQKPGQSPQLLIYQTSNLASGVPDRFSSSGSGTDFTLKISRVEAEDVGVYYCAQNLELPNTFGQGTKLEIK
2. EP04-3014 (1565-Y) (antibody) chain 1: QVQLVQSGAEVKKPGASVKVSCKASGYTFTNYYIHWVRQAPGQRLEYIGWIYPGNVYIQYNEKFKGRATLTADKSASTAYMELSSLRSEDTAVYYCARDGYWFAYWGQGTLVTVSS chain 2: QGQSGQGWCPRLFDRPSMGCPTGGGSSGGAVGLLAPPGGLSGRSDNIGGSDIVLTQTPLSLSVTPGQPASISCRSSRSLLHSDGFTYLYWFLQKPGQSPQLLIYQTSNLASGVPDRFSSSGSGTDFTLKISRVEAEDVGVYYCAQNLELPNTFGQGTKLEIK
3. EP01-3014 (1565-Y) (antibody) chain 1: QVQLVQSGAEVKKPGASVKVSCKASGYTFTNYYIHWVRQAPGQRLEYIGWIYPGNVYIQYNEKFKGRATLTADKSASTAYMELSSLRSEDTAVYYCARDGYWFAYWGQGTLVTVSS chain 2: QGQSGQGPLMTCSDYYTCKNNLGGGSSGGAVGLLAPPGGLSGRSDNIGGSDIVLTQTPLSLSVTPGQPASISCRSSRSLLHSDGFTYLYWFLQKPGQSPQLLIYQTSNLASGVPDRFSSSGSGTDFTLKISRVEAEDVGVYYCAQNLELPNTFGQGTKLEIK

OUTPUT:
1. 7.24
2. 7.57
3. 9.18
